Test system: PPARg:RXRa 270nM:90nM, anti-RXR (NR concentration 270 nM, RXRa partner concentration 90 nM)
Test: PBM binding z-score (relative to random genomic background probes); higher = stronger binding; sequences stand for … in GC…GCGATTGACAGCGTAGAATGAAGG
result-type: PBM binding z-score
Just the number, please, no unit attached.

Quick one: give measured PBM binding z-score for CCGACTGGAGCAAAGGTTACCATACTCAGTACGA
8.31

Indicate the recorded PBM binding z-score value for this sequence: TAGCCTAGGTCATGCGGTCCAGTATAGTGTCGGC
2.32

Input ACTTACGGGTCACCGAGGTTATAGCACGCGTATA , output reported PBM binding z-score.
6.57

For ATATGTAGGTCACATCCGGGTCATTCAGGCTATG , write its PBM binding z-score.
7.48

Read off the recorded PBM binding z-score for GCTTGTAGATCAAGTTTAAGAAAGACTAAGCTAA
-0.0876

Specify PBM binding z-score for CCTGCTAGGTCAATGGTCTGCTAAAGCAGCTCGC and stop.
2.86

Tell me measured PBM binding z-score for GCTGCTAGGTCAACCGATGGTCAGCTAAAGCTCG please.
3

Supply recorded PBM binding z-score for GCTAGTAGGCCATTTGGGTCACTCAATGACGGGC here.
2.41

Identify the reported PBM binding z-score for the following entry. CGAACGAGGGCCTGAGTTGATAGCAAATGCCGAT
-0.582

Supply PBM binding z-score value. Item: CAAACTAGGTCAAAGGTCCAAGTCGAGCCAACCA
10.1

Fill in PBM binding z-score for record CCGACTGGGGCAAGGTGACCATAACGCACAGCCA
1.81

State, in one line, measured PBM binding z-score of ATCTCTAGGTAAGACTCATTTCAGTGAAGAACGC
0.265

###

Test system: RARb homodimer (NR concentration 270 nM)
Assay: PBM binding z-score (relative to random genomic background probes); higher = stronger binding; sequences stand for … in GC…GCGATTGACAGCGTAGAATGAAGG
Measured PBM binding z-score, listed per entry for reference.
Number, no unit, nothing else.

Record excerpt, results attached:
- query-sequence: "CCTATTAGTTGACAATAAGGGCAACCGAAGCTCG"
  target-or-system: "RARb homodimer (NR concentration 270 nM)"
  quantitative-result: 1.52
- query-sequence: "CCTCGGAGGACAACAGGAGGTCAGGGCTGCCAGA"
  target-or-system: "RARb homodimer (NR concentration 270 nM)"
  quantitative-result: 3.69
- query-sequence: "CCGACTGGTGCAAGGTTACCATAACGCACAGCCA"
  target-or-system: "RARb homodimer (NR concentration 270 nM)"
  quantitative-result: 0.979
- query-sequence: "GCTGCTAGGTCAGGTTGGTCAGCTCACGGGTACG"
  target-or-system: "RARb homodimer (NR concentration 270 nM)"
  quantitative-result: 2.66
- query-sequence: "ATTAGCAGGCCAAGTTTGGGTCACTCAAACAAAG"
  target-or-system: "RARb homodimer (NR concentration 270 nM)"
  quantitative-result: 2.04
- query-sequence: "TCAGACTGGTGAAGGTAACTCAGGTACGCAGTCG"
  target-or-system: "RARb homodimer (NR concentration 270 nM)"
  quantitative-result: -0.0938
- query-sequence: "CGAACTAGGTCATTGACAGGACAGAGAATAGTAA"
  target-or-system: "RARb homodimer (NR concentration 270 nM)"
  quantitative-result: 2.47
- query-sequence: "GGAGCGAGGGCATTCGAGTTGATAGCATGGCGAT"
  target-or-system: "RARb homodimer (NR concentration 270 nM)"
  quantitative-result: 0.497

Return reported PBM binding z-score for target or system RARb homodimer (NR concentration 270 nM), item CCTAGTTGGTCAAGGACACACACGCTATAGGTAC .
1.47

Give PBM binding z-score; test system RARb homodimer (NR concentration 270 nM); sequence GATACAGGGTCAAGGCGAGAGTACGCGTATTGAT
3.23

Identify measured PBM binding z-score obtained with RARb homodimer (NR concentration 270 nM) for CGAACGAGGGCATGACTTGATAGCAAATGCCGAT .
0.668

Write down measured PBM binding z-score (RARb homodimer (NR concentration 270 nM)) for this sequence. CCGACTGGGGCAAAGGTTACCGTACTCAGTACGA
2.03

###

Test system: THRa:RXRa (NR concentration 90 nM, RXRa partner concentration 90 nM)
Assay: PBM binding z-score (relative to random genomic background probes); higher = stronger binding; sequences stand for … in GC…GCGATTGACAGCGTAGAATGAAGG
Classification field: enter YES for PBM binding z-score values not below 0.9, NO for values below it.

- query-sequence: "AGAATGAGGTTATTAAGAACAGGGAATTGCGGTC"
  target-or-system: "THRa:RXRa (NR concentration 90 nM, RXRa partner concentration 90 nM)"
  assigned-class: "YES"
- query-sequence: "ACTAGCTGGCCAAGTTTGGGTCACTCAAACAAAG"
  target-or-system: "THRa:RXRa (NR concentration 90 nM, RXRa partner concentration 90 nM)"
  assigned-class: "YES"
- query-sequence: "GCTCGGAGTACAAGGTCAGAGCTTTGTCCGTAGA"
  target-or-system: "THRa:RXRa (NR concentration 90 nM, RXRa partner concentration 90 nM)"
  assigned-class: "YES"
- query-sequence: "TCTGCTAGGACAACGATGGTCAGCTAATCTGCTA"
  target-or-system: "THRa:RXRa (NR concentration 90 nM, RXRa partner concentration 90 nM)"
  assigned-class: "NO"
- query-sequence: "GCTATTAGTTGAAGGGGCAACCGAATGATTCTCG"
  target-or-system: "THRa:RXRa (NR concentration 90 nM, RXRa partner concentration 90 nM)"
  assigned-class: "NO"

Item TAGCCTAGCTCATTGGGCCAGTATAGTACGCATC with PBM binding z-score of 0.9 or above?
NO

Confirm if PBM binding z-score reported for the sequence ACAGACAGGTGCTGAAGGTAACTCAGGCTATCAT is 0.9 or above.
NO

###

Tested on: PXR:RXRa (NR concentration 270 nM, RXRa partner concentration 90 nM)
Experiment: PBM binding z-score (relative to random genomic background probes); higher = stronger binding; sequences stand for … in GC…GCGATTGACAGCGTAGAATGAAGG
Values of PBM binding z-score greater than or equal to 3 map to 1; values below map to -1.

- query-sequence: "CCGGACAGGTGAAAGGTAACTCAGTCTGGTACGC"
  assigned-class: -1
- query-sequence: "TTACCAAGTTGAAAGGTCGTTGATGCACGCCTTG"
  assigned-class: 1
- query-sequence: "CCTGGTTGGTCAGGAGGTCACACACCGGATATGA"
  assigned-class: 1
- query-sequence: "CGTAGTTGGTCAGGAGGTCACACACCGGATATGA"
  assigned-class: 1
- query-sequence: "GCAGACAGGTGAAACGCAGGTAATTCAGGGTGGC"
  assigned-class: -1

# evaluate next
Dear colleague, could you confirm whether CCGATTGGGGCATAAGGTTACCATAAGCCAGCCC has PBM binding z-score at or above 3?
-1

###

System: FXR:RXRa (NR concentration 270 nM, RXRa partner concentration 90 nM)
Assay: PBM binding z-score (relative to random genomic background probes); higher = stronger binding; sequences stand for … in GC…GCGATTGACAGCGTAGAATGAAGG
result-type: PBM binding z-score
Answer with the value's number alone.

Guide cases for PBM binding z-score, answers given:
- query-sequence: "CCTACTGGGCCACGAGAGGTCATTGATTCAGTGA"
  quantitative-result: 3.4
- query-sequence: "TCTAGTTGGTCAAAGTTCACACACTCGAAATGCG"
  quantitative-result: 3.96
- query-sequence: "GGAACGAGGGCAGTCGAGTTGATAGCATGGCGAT"
  quantitative-result: 0.203
- query-sequence: "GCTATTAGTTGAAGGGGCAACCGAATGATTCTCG"
  quantitative-result: -0.0427
- query-sequence: "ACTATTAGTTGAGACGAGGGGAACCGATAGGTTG"
  quantitative-result: 0.227

Next, consider the following sequence.
Please supply the value of reported PBM binding z-score for the item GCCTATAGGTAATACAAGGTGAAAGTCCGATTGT
2.26

###

Test system: PPARg:RXRa 30nM:10nM, anti-RXR (NR concentration 30 nM, RXRa partner concentration 10 nM)
Test: PBM binding z-score (relative to random genomic background probes); higher = stronger binding; sequences stand for … in GC…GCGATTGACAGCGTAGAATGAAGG
Label 0 if PBM binding z-score falls below 1; label 1 in every other case.

- query-sequence: "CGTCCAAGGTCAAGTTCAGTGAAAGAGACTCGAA"
  assigned-class: 1
- query-sequence: "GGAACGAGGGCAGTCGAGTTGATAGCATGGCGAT"
  assigned-class: 0
- query-sequence: "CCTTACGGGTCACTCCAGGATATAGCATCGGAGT"
  assigned-class: 1
- query-sequence: "ACTAGTTGGTCAGCTGAGGTGACACACAATTCGG"
  assigned-class: 0
- query-sequence: "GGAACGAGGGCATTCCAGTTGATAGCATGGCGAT"
  assigned-class: 0

Read the next record carefully.
Please check the record ATCGAAAGGTCGTGATGTGAGTATACAGAAAGGC and state if its PBM binding z-score is at or above 1.
1
